test system: NCI-H650; experiment: relative viability (nuclei count vs DMSO), 5 days (fraction); higher = more cells survive; details: first compound 0.2 µM
# key: entry, value: relative viability
The answer should be written as a number, with no unit following it.

Take a look at these entries with their results.
## Task Requested read-out: relative viability. Entry: COCC1(CO)C(=O)C2CCN1CC2 (centres undefined) [PRIMA-1MET] + CC(=O)Nc1cccc(-n2c(=O)n(C3CC3)c(=O)c3c(Nc4ccc(I)cc4F)n(C)c(=O)c(C)c32)c1 [Trametinib] (partner 0.02 µM)
## Result 0.58

## Task And the next one, COCC1(CO)C(=O)C2CCN1CC2 (centres undefined) [PRIMA-1MET] + CC(C)C[C@H](NC(=O)[C@H](Cc1ccccc1)NC(=O)c1cnccn1)B(O)O [Bortezomib] (partner 0.002 µM) ?
## Result 1.11

## Task Entry to check: COCC1(CO)C(=O)C2CCN1CC2 (centres undefined) [PRIMA-1MET] + CC(=O)c1c(C)c2cnc(Nc3ccc(N4CCNCC4)cn3)nc2n(C2CCCC2)c1=O [Palbociclib] (partner 0.5 µM)
## Result 0.317

Okay, next one:
## Task # lookup: relative viability of COCC1(CO)C(=O)C2CCN1CC2 (centres undefined) [PRIMA-1MET] + C[C@]1(O)C[C@@H](c2nc(-c3ccc4ccc(-c5ccccc5)nc4c3)c3c(N)nccn32)C1 [Linsitinib] (partner 1 µM)
## Result 1.13

---

system: NCI-H23; test: relative viability (nuclei count vs DMSO), 5 days (fraction); higher = more cells survive; details: first compound 8 µM
Value type: relative viability
Would you mind answering with just the numeric figure?

## Task Fill in the blank: the reported relative viability of O=c1cc(-c2cccc3c2Sc2ccccc2S3)oc(N2CCOCC2)c1 + CC(=O)c1c(C)c2cnc(Nc3ccc(N4CCNCC4)cn3)nc2n(C2CCCC2)c1=O [Palbociclib] (partner 0.5 µM) is ____.
## Result 0.451

New cases:
## Task Param item = O=c1cc(-c2cccc3c2Sc2ccccc2S3)oc(N2CCOCC2)c1 + COc1cc2c(Oc3ccc(NC(=O)C4(C(=O)Nc5ccc(F)cc5)CC4)cc3F)ccnc2cc1OCCCN1CCOCC1 [Foretinib] (partner 0.25 µM) ; retrieve measured relative viability.
## Result 0.898

## Task And then O=c1cc(-c2cccc3c2Sc2ccccc2S3)oc(N2CCOCC2)c1 + CS(=O)(=O)CCNCc1ccc(-c2ccc3ncnc(Nc4ccc(OCc5cccc(F)c5)c(Cl)c4)c3c2)o1 [Lapatinib] (partner 2 µM) , what is it?
## Result 1.17

---

Listed here are compounds together with their documented relative viability.
tested on: LCLC-97TM1; assay: relative viability (nuclei count vs DMSO), 5 days (fraction); higher = more cells survive; conditions: first compound 0.1 µM
// no unit string in output, number only

## Task Dear colleague, I am looking for the recorded relative viability of the following compound: CCN(CC)CCCCNc1ncc2cc(-c3cc(OC)cc(OC)c3)c(NC(=O)NC(C)(C)C)nc2n1 + Cc1nc(NC(=O)N2CCC[C@H]2C(N)=O)sc1-c1ccnc(C(C)(C)C(F)(F)F)c1 [Alpelisib] (partner 2 µM)
## Result 0.221

## Task Next: CCN(CC)CCCCNc1ncc2cc(-c3cc(OC)cc(OC)c3)c(NC(=O)NC(C)(C)C)nc2n1 + COc1cc2c(Oc3ccc(NC(=O)C4(C(=O)Nc5ccc(F)cc5)CC4)cc3F)ccnc2cc1OCCCN1CCOCC1 [Foretinib] (partner 0.25 µM)
## Result 1.03

## Task Another compound: CCN(CC)CCCCNc1ncc2cc(-c3cc(OC)cc(OC)c3)c(NC(=O)NC(C)(C)C)nc2n1 + COc1cccc2cc(-c3nc([C@H]4CC[C@H](C(=O)O)CC4)n4ncnc(N)c34)[nH]c12 [OSI-027] (partner 0.5 µM)
## Result 0.513

Then this compound:
## Task Look at this compound and give its reported relative viability. CCN(CC)CCCCNc1ncc2cc(-c3cc(OC)cc(OC)c3)c(NC(=O)NC(C)(C)C)nc2n1 + CS(=O)(=O)CCNCc1ccc(-c2ccc3ncnc(Nc4ccc(OCc5cccc(F)c5)c(Cl)c4)c3c2)o1 [Lapatinib] (partner 2 µM)
## Result 1.13

---

Entries annotated with measured relative viability
system: NCI-H2023; experiment: relative viability (nuclei count vs DMSO), 5 days (fraction); higher = more cells survive; details: first compound 0.1 µM

Answered cases to consult:
## Task Reported relative viability for NCI-H2023, given CCN(CC)CCCCNc1ncc2cc(-c3cc(OC)cc(OC)c3)c(NC(=O)NC(C)(C)C)nc2n1 + O=C(CCCCCCC(=O)Nc1ccccc1)NO [Vorinostat] (partner 1 µM) ?
## Result 0.686

## Task Queued: CCN(CC)CCCCNc1ncc2cc(-c3cc(OC)cc(OC)c3)c(NC(=O)NC(C)(C)C)nc2n1 + COc1cccc2cc(-c3nc([C@H]4CC[C@H](C(=O)O)CC4)n4ncnc(N)c34)[nH]c12 [OSI-027] (partner 0.5 µM)
## Result 0.518

## Task Proceed to CCN(CC)CCCCNc1ncc2cc(-c3cc(OC)cc(OC)c3)c(NC(=O)NC(C)(C)C)nc2n1 + CC1(C)CCC(c2ccc(Cl)cc2)=C(CN2CCN(c3ccc(C(=O)NS(=O)(=O)c4ccc(N[C@H](CCN5CCOCC5)CSc5ccccc5)c(S(=O)(=O)C(F)(F)F)c4)cc3)CC2)C1 [Navitoclax] (partner 0.5 µM)
## Result 1

Further cases:
## Task Checklist item: relative viability tested on NCI-H2023, entry CCN(CC)CCCCNc1ncc2cc(-c3cc(OC)cc(OC)c3)c(NC(=O)NC(C)(C)C)nc2n1 + CC(=O)c1c(C)c2cnc(Nc3ccc(N4CCNCC4)cn3)nc2n(C2CCCC2)c1=O [Palbociclib] (partner 0.5 µM) , value?
## Result 0.348

## Task Try CCN(CC)CCCCNc1ncc2cc(-c3cc(OC)cc(OC)c3)c(NC(=O)NC(C)(C)C)nc2n1 + CS(=O)(=O)N1CCN(Cc2cc3nc(-c4cccc5[nH]ncc45)nc(N4CCOCC4)c3s2)CC1 [Pictilisib] (partner 1 µM) next.
## Result 0.221

## Task CCN(CC)CCCCNc1ncc2cc(-c3cc(OC)cc(OC)c3)c(NC(=O)NC(C)(C)C)nc2n1 + CS(=O)(=O)CCNCc1ccc(-c2ccc3ncnc(Nc4ccc(OCc5cccc(F)c5)c(Cl)c4)c3c2)o1 [Lapatinib] (partner 2 µM) , same question.
## Result 1.17

## Task Likewise for CCN(CC)CCCCNc1ncc2cc(-c3cc(OC)cc(OC)c3)c(NC(=O)NC(C)(C)C)nc2n1 + COc1cc2c(Oc3ccc(NC(=O)C4(C(=O)Nc5ccc(F)cc5)CC4)cc3F)ccnc2cc1OCCCN1CCOCC1 [Foretinib] (partner 0.25 µM) ?
## Result 0.864

---

tested on: LU99A; assay: relative viability (nuclei count vs DMSO), 5 days (fraction); higher = more cells survive; conditions: first compound 0.3162 µM
In this section, each of the molecules is paired with its reported relative viability.
Write the number on its own, no unit after it.

## Task Look up relative viability for this molecule: O=c1cc(N2CCOCC2)oc2c(-c3cccc4c3sc3ccccc34)cccc12 + CS(=O)(=O)N1CCN(Cc2cc3nc(-c4cccc5[nH]ncc45)nc(N4CCOCC4)c3s2)CC1 [Pictilisib] (partner 1 µM)
## Result 0.367

## Task Also check CCN(CC)CCCCNc1ncc2cc(-c3cc(OC)cc(OC)c3)c(NC(=O)NC(C)(C)C)nc2n1 + Cc1nc(Nc2ncc(C(=O)Nc3c(C)cccc3Cl)s2)cc(N2CCN(CCO)CC2)n1 [Dasatinib] (partner 0.075 µM)
## Result 0.499

## Task Same again, this time with O=c1cc(N2CCOCC2)oc2c(-c3cccc4c3sc3ccccc34)cccc12 + C[C@@H](Oc1cc(-c2cnn(C3CCNCC3)c2)cnc1N)c1c(Cl)ccc(F)c1Cl [Crizotinib] (partner 1 µM)
## Result 0.535

## Task Try the molecule CCN(CC)CCCCNc1ncc2cc(-c3cc(OC)cc(OC)c3)c(NC(=O)NC(C)(C)C)nc2n1 + O=C(CCCCCCC(=O)Nc1ccccc1)NO [Vorinostat] (partner 1 µM)
## Result 0.529

---

system: NCI-H2342; experiment: relative viability (nuclei count vs DMSO), 5 days (fraction); higher = more cells survive; conditions: first compound 2.53 µM
Examples of molecules with documented relative viability follow.

Field: example entries. Status: answers known.
## Task Given the molecule COc1nc(C)cnc1NS(=O)(=O)c1cccnc1-c1ccc(-c2nnco2)cc1 [Zibotentan] + COc1cccc2cc(-c3nc([C@H]4CC[C@H](C(=O)O)CC4)n4ncnc(N)c34)[nH]c12 [OSI-027] (partner 0.5 µM) , what is its reported relative viability?
## Result 0.758

## Task And COc1nc(C)cnc1NS(=O)(=O)c1cccnc1-c1ccc(-c2nnco2)cc1 [Zibotentan] + O=C(c1cc(Cc2n[nH]c(=O)c3ccccc23)ccc1F)N1CCN(C(=O)C2CC2)CC1 [Olaparib] (partner 8 µM) ?
## Result 0.389

## Task Subsequent entry: O=c1cc(-c2cccc3c2Sc2ccccc2S3)oc(N2CCOCC2)c1 + N=C(N)NC(=N)NCCc1ccccc1 [Phenformin] (partner 250 µM)
## Result 0.557

## Task Try this molecule too: O=c1cc(-c2cccc3c2Sc2ccccc2S3)oc(N2CCOCC2)c1 + CCNC(=O)c1noc(-c2cc(C(C)C)c(O)cc2O)c1-c1ccc(CN2CCOCC2)cc1 [Luminespib] (partner 0.01 µM)
## Result 0.663

We next turn to a different molecule, shown below.
## Task Which relative viability value belongs to O=c1cc(-c2cccc3c2Sc2ccccc2S3)oc(N2CCOCC2)c1 + CC(=O)c1c(C)c2cnc(Nc3ccc(N4CCNCC4)cn3)nc2n(C2CCCC2)c1=O [Palbociclib] (partner 0.5 µM) ?
## Result 0.522
